Provenance of the data: patent US20200317776A1

- measurementTarget: T1, human TREM2 Fc fusion (entire TREM2 ECD; only one Fc arm fused to TREM2) (human, UniProt Q9NZC2 19-174)
- T1 construct: also called huTREM2-Fc; recombinant hTREM2
- T1 sequence: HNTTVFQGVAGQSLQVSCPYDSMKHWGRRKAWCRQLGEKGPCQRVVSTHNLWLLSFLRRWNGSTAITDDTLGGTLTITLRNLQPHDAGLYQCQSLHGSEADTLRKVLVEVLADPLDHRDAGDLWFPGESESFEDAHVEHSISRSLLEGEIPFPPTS
- assayRemarks: BLI, Fab, monovalent
pKd: −log10 of the molar value.
parameterMeasured: pKd

AL2p-h21 (antibody, human IgG1, V domains shown, humanized, human IgG1; Fab and IgG formats under one id) VH: QVQLVQSGAEVKKPGASVKVSCKASGYAFSSSWMNWVRQAPGQGLEWMGRIYPGDGDTNYAQKFQGRVTMTRDTSTSTVYMELSSLRSEDTAVYYCARLLRNQPGESYAMDYWGQGTLVTVSS VL: DVVMTQTPLSLSVTPGQPASISCRSSQSLVHSNGYTYLHWYLQKPGQSPQLLIYKVSNRFSGVPDRFSGSGSGTDFTLKISRVEAEDLGVYFCSQSTRVPYTFGQGTKLEIK = 6.86
